test: Luminescence Cell-Based Dose Response HTS to Identify Inhibitors of 5'UTR Stem-Loop Driven Prion Protein mRNA Translation in H4 Neuroglioblastoma Cells. [Related pubchem assays: 1827 (Project Summary), 1813 (Primary HTS)]; assay type: functional
Active and inactive are the calls of the source. No stated cut-off is given here; in the data, actives have a measured EC50 and inactives only a lower limit.
QUANTITY_NAME: EC50

Batch: EC50 for all items listed.
1. COC(=O)c1c(C)n(Cc2ccccc2)c2ccc(O)cc12
2. O=C(NCCc1ccccc1F)c1ccc2c(c1)OCCO2
3. Cn1cc(C(=O)c2ccc(Cl)cc2Cl)cc1C(=O)NN=C(N)COc1ccc(Cl)cc1Cl
4. Cc1cc(C(=O)Nc2ccc3c(c2)OCCO3)ccc1[N+](=O)[O-]

(A)
1: > 120 µM (not active); 2: < 0.1 µM (active); 3: 24.3 µM (active); 4: 13.7 µM (active)
